- protocol summary: Calu-6 flank xenograft model in male scid mice, HPM with docetaxel (Example 1)
- Type: in vivo
- test settings: male, scid, mouse, in vivo, intravenous; docetaxel on a q.10d.×2 schedule, mice
reported metric: MTD (mg/kg/day)
Use mg/kg/day as the unit, but write only the number.

IN: // MTD lookup, key: "CC(=O)O[C@@]12CO[C@@H]1C[C@H](O)[C@@]1(C)C(=O)[C@H](O)C3=C(C)[C@@H](OC(=O)[C@H](O)[C@@H](NC(=O)OC(C)(C)C)c4ccccc4)C[C@@](O)([C@@H](OC(=O)c4ccccc4)[C@H]21)C3(C)C"
OUT: 25
